Data provenance: paper PMC4786998

- procedureText: Plasma pharmacokinetics in phase I patients
- Type: in vivo, human
- details: human, plasma, oral, 125 mg, cycle 1, day 28; 125 mg once daily; dose-escalation cohort; n = 1; read-out: t max
- Method: On day 1, the following PK parameters were assessed for […]: area under the plasma concentration-time curve (AUC24), AUClast, maximum concentration observed (Cmax), and time of maximum concentration observed (tmax). On day 28, [NT], Cmax, Ctrough, tmax, CL/F, Vz/F, and t1⁄2, calculated based on the ratio of accumulation for AUC (day 28 AUCtau/day 1 AUC24) (Rac [AUC]), were assessed. […] For continuous PK parameters, the coefficient of variation was calculated. […]
parameterMeasured: Tmax (h)

compound	resultValue
COc1cc(N2CCC(N3CCN(C)CC3)CC2)ccc1Nc1ncnc(Nc2ccccc2S(=O)(=O)C(C)C)n1 [ASP3026]	2.1

* * *

- procedureText: Plasma pharmacokinetics in phase I patients
- Type: in vivo, human
- details: human, plasma, oral, 125 mg, cycle 1, day 28; 125 mg once daily; dose-escalation cohort; n = 1
- Method: On day 1, the following PK parameters were assessed for […]: area under the plasma concentration-time curve (AUC24), AUClast, maximum concentration observed (Cmax), and time of maximum concentration observed (tmax). On day 28, [NT], Cmax, Ctrough, tmax, CL/F, Vz/F, and t1⁄2, calculated based on the ratio of accumulation for AUC (day 28 AUCtau/day 1 AUC24) (Rac [AUC]), were assessed. […] For continuous PK parameters, the coefficient of variation was calculated. […]

chemicalSmiles	Cmax, ng/mL
COc1cc(N2CCC(N3CCN(C)CC3)CC2)ccc1Nc1ncnc(Nc2ccccc2S(=O)(=O)C(C)C)n1	668

* * *

- procedureText: Plasma pharmacokinetics in phase I patients
- Format: in vivo, human
- details: human, plasma, oral, 325 mg once daily, cycle 1, day 28; 325 mg once daily; dose-escalation cohort; n = 3; mean (standard deviation); read-out: AUC24
parameterMeasured: AUC (ng·h/mL)

chemicalSmiles	unitTag	resultValue
COc1cc(N2CCC(N3CCN(C)CC3)CC2)ccc1Nc1ncnc(Nc2ccccc2S(=O)(=O)C(C)C)n1	ng·h/mL	18800

* * *

- procedureText: Plasma pharmacokinetics in phase I patients
- Type: in vivo, human
- details: human, plasma, oral, 325 mg, cycle 1, day 1; 325 mg once daily; dose-escalation cohort; n = 3; mean (standard deviation); read-out: AUC24

compound	AUC [ng·h/mL]
COc1cc(N2CCC(N3CCN(C)CC3)CC2)ccc1Nc1ncnc(Nc2ccccc2S(=O)(=O)C(C)C)n1 [ASP3026]	7950

* * *

- procedureText: Plasma pharmacokinetics in phase I patients
- Format: in vivo, human
- details: human, plasma, oral, 200 mg, cycle 1, day 1; 200 mg once daily; dose-escalation cohort; n = 4; mean (standard deviation); read-out: AUC24
- Protocol: On day 1, the following PK parameters were assessed for […]: area under the plasma concentration-time curve (AUC24), AUClast, maximum concentration observed (Cmax), and time of maximum concentration observed (tmax). On day 28, [NT], Cmax, Ctrough, tmax, CL/F, Vz/F, and t1⁄2, calculated based on the ratio of accumulation for AUC (day 28 AUCtau/day 1 AUC24) (Rac [AUC]), were assessed. […] For continuous PK parameters, the coefficient of variation was calculated. […]

chemicalSmiles	AUC, ng·h/mL
COc1cc(N2CCC(N3CCN(C)CC3)CC2)ccc1Nc1ncnc(Nc2ccccc2S(=O)(=O)C(C)C)n1	4580

* * *

- procedureText: Plasma pharmacokinetics in phase I patients
- Type: in vivo, human
- details: human, plasma, oral, 75 mg, cycle 1, day 28; 75 mg once daily; dose-escalation cohort; n = 3; mean (standard deviation); calculated from accumulation ratio; read-out: t ½ (converted)
parameterMeasured: half-life (h)

chemicalSmiles	resultValue
COc1cc(N2CCC(N3CCN(C)CC3)CC2)ccc1Nc1ncnc(Nc2ccccc2S(=O)(=O)C(C)C)n1	84.7

* * *

- procedureText: Plasma pharmacokinetics in phase I patients
- Type: in vivo, human
- details: human, plasma, oral, 75 mg, cycle 1, day 28; 75 mg once daily; dose-escalation cohort; n = 3; median (range); read-out: t max

molecule	Tmax
COc1cc(N2CCC(N3CCN(C)CC3)CC2)ccc1Nc1ncnc(Nc2ccccc2S(=O)(=O)C(C)C)n1 [ASP3026]	3 h

* * *

- procedureText: Plasma pharmacokinetics in phase I patients
- Assay type: in vivo, human
- details: human, plasma, oral, 125 mg, cycle 1, day 1; 125 mg once daily; dose-escalation cohort; n = 4; mean (standard deviation)

molecule	Cmax [ng/mL]
COc1cc(N2CCC(N3CCN(C)CC3)CC2)ccc1Nc1ncnc(Nc2ccccc2S(=O)(=O)C(C)C)n1 [ASP3026]	262

* * *

- procedureText: Plasma pharmacokinetics in phase I patients
- Assay type: in vivo, human
- details: human, plasma, oral, 25 mg, cycle 1, day 28; 25 mg once daily; dose-escalation cohort; n = 3; mean (standard deviation); calculated from accumulation ratio; read-out: t ½ (converted)

compound	half-life
COc1cc(N2CCC(N3CCN(C)CC3)CC2)ccc1Nc1ncnc(Nc2ccccc2S(=O)(=O)C(C)C)n1 [ASP3026]	36.6 h

* * *

- procedureText: Plasma pharmacokinetics in phase I patients
- Type: in vivo, human
- details: human, in vivo, t ½
- Experimental: On day 1, the following PK parameters were assessed for […]: area under the plasma concentration-time curve (AUC24), AUClast, maximum concentration observed (Cmax), and time of maximum concentration observed (tmax). On day 28, [NT], Cmax, Ctrough, tmax, CL/F, Vz/F, and t1⁄2, calculated based on the ratio of accumulation for AUC (day 28 AUCtau/day 1 AUC24) (Rac [AUC]), were assessed. […] For continuous PK parameters, the coefficient of variation was calculated. […]

chemicalSmiles	unitTag	half-life
COc1cc(N2CCC(N3CCN(C)CC3)CC2)ccc1Nc1ncnc(Nc2ccccc2S(=O)(=O)C(C)C)n1	h	27.3

* * *

- procedureText: Plasma pharmacokinetics in phase I patients
- Assay type: in vivo, human
- details: human, plasma, oral, 50 mg, cycle 1, day 28; 50 mg once daily; dose-escalation cohort; n = 3; mean (standard deviation)
- Protocol: On day 1, the following PK parameters were assessed for […]: area under the plasma concentration-time curve (AUC24), AUClast, maximum concentration observed (Cmax), and time of maximum concentration observed (tmax). On day 28, [NT], Cmax, Ctrough, tmax, CL/F, Vz/F, and t1⁄2, calculated based on the ratio of accumulation for AUC (day 28 AUCtau/day 1 AUC24) (Rac [AUC]), were assessed. […] For continuous PK parameters, the coefficient of variation was calculated. […]

chemicalSmiles	Cmax [ng/mL]
COc1cc(N2CCC(N3CCN(C)CC3)CC2)ccc1Nc1ncnc(Nc2ccccc2S(=O)(=O)C(C)C)n1	143

* * *

- procedureText: Plasma pharmacokinetics in phase I patients
- Assay type: in vivo, human
- details: human, plasma, oral, 200 mg once daily, cycle 1, day 28; 200 mg once daily; dose-escalation cohort; n = 3; mean (standard deviation); read-out: AUC24

compound	AUC, ng·h/mL
COc1cc(N2CCC(N3CCN(C)CC3)CC2)ccc1Nc1ncnc(Nc2ccccc2S(=O)(=O)C(C)C)n1 [ASP3026]	7620

* * *

- procedureText: Plasma pharmacokinetics in phase I patients
- Format: in vivo, human
- details: human, plasma, oral, 800 mg, cycle 1, day 1; 800 mg once daily; dose-escalation cohort; n = 3; median (range); read-out: t max

molecule	Tmax (h)
COc1cc(N2CCC(N3CCN(C)CC3)CC2)ccc1Nc1ncnc(Nc2ccccc2S(=O)(=O)C(C)C)n1 [ASP3026]	3

* * *

- procedureText: Plasma pharmacokinetics in phase I patients
- Type: in vivo, human
- details: human, plasma, oral, 50 mg, cycle 1, day 28; 50 mg once daily; dose-escalation cohort; n = 3; median (range); read-out: t max
parameterMeasured: Tmax (h)

chemicalSmiles	unitTag	resultValue
COc1cc(N2CCC(N3CCN(C)CC3)CC2)ccc1Nc1ncnc(Nc2ccccc2S(=O)(=O)C(C)C)n1	h	3

* * *

- procedureText: Plasma pharmacokinetics in phase I patients
- Type: in vivo, human
- details: human, plasma, oral, 200 mg, cycle 1, day 1; 200 mg once daily; dose-escalation cohort; n = 4; median (range); read-out: t max

chemicalSmiles	Tmax / h
COc1cc(N2CCC(N3CCN(C)CC3)CC2)ccc1Nc1ncnc(Nc2ccccc2S(=O)(=O)C(C)C)n1	2.5

* * *

- procedureText: Plasma pharmacokinetics in phase I patients
- Type: in vivo, human
- details: human, plasma, oral, 75 mg, cycle 1, day 1; 75 mg once daily; dose-escalation cohort; n = 3; mean (standard deviation); read-out: AUC24
parameterMeasured: AUC (ng·h/mL)

compound	resultValue
COc1cc(N2CCC(N3CCN(C)CC3)CC2)ccc1Nc1ncnc(Nc2ccccc2S(=O)(=O)C(C)C)n1 [ASP3026]	1160

* * *

- procedureText: Plasma pharmacokinetics in phase I patients
- Type: in vivo, human
- details: human, plasma, oral, 25 mg, cycle 1, day 28; 25 mg once daily; dose-escalation cohort; n = 3; mean (standard deviation)

chemicalSmiles	Cmax (ng/mL)
COc1cc(N2CCC(N3CCN(C)CC3)CC2)ccc1Nc1ncnc(Nc2ccccc2S(=O)(=O)C(C)C)n1	68.4
